All values here come from patent US9315520B2.

target: UniProtKB P56817; assay: BACE1 Cell-Free Assay (fluorescence polarization); type: biochemical; settings: geometric mean of 2-4 determinations unless otherwise indicated (b: ≧5; c: single determination); read-out: BACE1 Cell-free Assay IC50
Sequence (P56817 46-457): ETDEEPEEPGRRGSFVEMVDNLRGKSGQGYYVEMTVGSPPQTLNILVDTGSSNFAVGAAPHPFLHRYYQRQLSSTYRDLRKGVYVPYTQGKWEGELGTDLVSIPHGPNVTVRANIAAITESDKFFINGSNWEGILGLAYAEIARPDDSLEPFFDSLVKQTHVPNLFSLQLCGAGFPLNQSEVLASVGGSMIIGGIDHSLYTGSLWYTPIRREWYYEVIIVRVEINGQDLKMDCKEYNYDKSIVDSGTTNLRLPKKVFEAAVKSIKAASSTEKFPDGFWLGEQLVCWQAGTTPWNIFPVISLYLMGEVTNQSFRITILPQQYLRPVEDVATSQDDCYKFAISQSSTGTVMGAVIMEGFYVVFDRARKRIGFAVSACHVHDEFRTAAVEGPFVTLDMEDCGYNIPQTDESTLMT
Structures can show the parent of a compound that is named as a salt.
Value Type: IC50 (µM)

Please review the entries below; each comes with its answer.
{"columns": ["Compound", "Value Type", "Measured"],
 "data": [
  ["C[C@H]1C[C@H]2CSC(N)=N[C@@]2(c2nc(NC(=O)c3cn(C)cn3)cs2)CO1 [Example 75, trifluoroacetate salt]", "IC50", 18.2],
  ["C[C@H]1C[C@H]2CSC(N)=N[C@@]2(c2nc(NC(=O)c3ccn(CC(F)F)n3)cs2)CO1 [Example 87]", "IC50", 0.398],
  ["Cc1oc(CF)nc1C(=O)Nc1csc([C@]23CO[C@@H](C)C[C@H]2CSC(N)=N3)n1 [Example 102]", "IC50", 0.012],
  ["C[C@H]1C[C@H]2CSC(N)=N[C@@]2(c2nc(NC(=O)c3cc(C(F)(F)F)on3)cs2)CO1 [Example 32, trifluoroacetate salt]", "IC50", 1.4]
]}

A = C[C@H]1C[C@H]2CSC(N)=N[C@@]2(c2nc(NC(=O)c3ccc(C(F)F)cn3)cs2)CO1 [Example 25]
B = Cc1nc(OC(F)F)cnc1C(=O)Nc1csc([C@]23CO[C@@H](C)C[C@H]2CSC(N)=N3)n1 [Example 98]
C = C[C@H]1C[C@H]2CSC(N)=N[C@@]2(c2nc(NC(=O)c3ccn(C(F)F)n3)cs2)CO1 [Example 4]
D = Cc1cc(C(=O)Nc2csc([C@]34CO[C@@H](C)C[C@H]3CSC(N)=N4)n2)nn1C [Example 73, trifluoroacetate salt]
E = C[C@H]1C[C@H]2CSC(N)=N[C@@]2(c2nc(NC(=O)c3ccc(F)cn3)cs2)CO1 [Example 9]
Order field: IC50 | Direction: descending (largest first) Please respond with the labels ordered as the question requires. D, E, A, B, C
